- TARGET_OR_SYSTEM: Human CB1 Receptor-1b (hCB1b) (Homo sapiens (Human), UniProt P21554)
- Sequence (P21554 other isoform, or with tags, fused parts or gaps): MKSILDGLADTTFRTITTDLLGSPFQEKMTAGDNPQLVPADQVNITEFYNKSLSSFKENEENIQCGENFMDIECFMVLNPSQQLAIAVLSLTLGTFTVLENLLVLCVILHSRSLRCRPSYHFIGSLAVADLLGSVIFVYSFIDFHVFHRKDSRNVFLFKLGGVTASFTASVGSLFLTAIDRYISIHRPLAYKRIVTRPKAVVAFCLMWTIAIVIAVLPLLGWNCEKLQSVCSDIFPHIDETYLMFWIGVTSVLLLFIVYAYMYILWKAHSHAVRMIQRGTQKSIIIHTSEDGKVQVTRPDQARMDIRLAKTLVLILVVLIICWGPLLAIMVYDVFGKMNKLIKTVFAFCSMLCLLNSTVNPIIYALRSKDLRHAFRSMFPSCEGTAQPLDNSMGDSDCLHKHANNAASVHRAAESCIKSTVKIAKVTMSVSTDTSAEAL
- PROCEDURE_TEXT: hCB1b Gai cyclic AMP (cAMP) TR-FRET assay, antagonism of EC80 CP55940 with forskolin
- EXPERIMENTAL_CONDITIONS: hCB1b cells, 30 min pre-incubation, read-out: CB1b IC50
ENDPOINT_NAME: IC50

Some entries whose results are on file:
NS(=O)(=O)CCNC(=NS(=O)(=O)c1ccc(C(F)(F)F)cc1)N1C[C@H](c2ccccc2)C(c2ccc(Cl)cc2)=N1    < 100 nM
NS(=O)(=O)C1CCN(/C(=N/S(=O)(=O)c2ccc(Cl)cc2)N2C[C@H](c3ccccc3)C(c3ccc(Cl)cc3)=N2)CC1    > 500 nM
NS(=O)(=O)[C@H]1C[C@@H](N/C(=N/S(=O)(=O)c2ccc(Cl)cc2)N2C[C@H](c3ccccc3)C(c3ccc(Cl)cc3)=N2)C1 (single isomer, unassigned)    100 to 500 nM
CN1CCN(S(=O)(=O)CCN/C(=N\S(=O)(=O)c2ccc(F)cc2)N2C[C@H](c3ccccc3)C(c3ccc(F)cc3)=N2)CC1    100 to 500 nM
NS(=O)(=O)[C@H]1CC[C@H](N/C(=N/S(=O)(=O)c2ccc(Cl)cc2)N2C[C@H](c3ccccc3)C(c3ccc(Cl)cc3)=N2)C1 (single isomer, unassigned)    100 to 500 nM

Ask | IC50 for NS(=O)(=O)CCNC(=NS(=O)(=O)c1ccccc1Cl)N1C[C@H](c2ccccc2)C(c2ccc(Cl)cc2)=N1 ?
Reply | < 100 nM

----------
- TARGET_OR_SYSTEM: Human CB1 Receptor-1 (hCB1) (Homo sapiens (Human))
- PROCEDURE_TEXT: hCB1 Gai cyclic AMP (cAMP) TR-FRET assay, antagonism of EC80 CP55940 with forskolin
- EXPERIMENTAL_CONDITIONS: hCB1 cells, 30 min pre-incubation
pIC50: −log10 of the molar value.
Below, each entry is listed with its recorded pIC50.

NS(=O)(=O)[C@H]1CC[C@@H](N/C(=N/S(=O)(=O)c2ccc(Cl)cc2)N2C[C@H](c3ccccc3)C(c3ccc(Cl)cc3)=N2)C1 (single isomer, unassigned) [Compound 145]    6.30 to 7.00
CN1CCN(S(=O)(=O)CCN/C(=N\S(=O)(=O)c2ccc(F)cc2)N2C[C@H](c3ccccc3)C(c3ccc(F)cc3)=N2)CC1 [Compound 165]    > 7.00
C[C@H](CN/C(=N\S(=O)(=O)c1ccc(C(F)(F)F)cc1)N1C[C@H](c2ccccc2)C(c2ccc(Cl)cc2)=N1)S(N)(=O)=O [Compound 17]    > 7.00

Ask | pIC50 for CN1CCN(S(=O)(=O)CCN/C(=N\S(=O)(=O)c2ccc(Cl)cc2)N2C[C@H](c3ccccc3)C(c3ccc(Cl)cc3)=N2)CC1 [Compound 157] ?
Reply | > 7.00

Ask | pIC50 for NS(=O)(=O)N[C@H]1C[C@H](N/C(=N\S(=O)(=O)c2ccc(Cl)cc2)N2C[C@H](c3ccccc3)C(c3ccc(Cl)cc3)=N2)C1 (single isomer, unassigned) [Compound 241] ?
Reply | 6.30 to 7.00

----------
- TARGET_OR_SYSTEM: Human CB1 Receptor-1 (hCB1) (Homo sapiens (Human), UniProt P21554)
- Sequence (P21554 whole entry): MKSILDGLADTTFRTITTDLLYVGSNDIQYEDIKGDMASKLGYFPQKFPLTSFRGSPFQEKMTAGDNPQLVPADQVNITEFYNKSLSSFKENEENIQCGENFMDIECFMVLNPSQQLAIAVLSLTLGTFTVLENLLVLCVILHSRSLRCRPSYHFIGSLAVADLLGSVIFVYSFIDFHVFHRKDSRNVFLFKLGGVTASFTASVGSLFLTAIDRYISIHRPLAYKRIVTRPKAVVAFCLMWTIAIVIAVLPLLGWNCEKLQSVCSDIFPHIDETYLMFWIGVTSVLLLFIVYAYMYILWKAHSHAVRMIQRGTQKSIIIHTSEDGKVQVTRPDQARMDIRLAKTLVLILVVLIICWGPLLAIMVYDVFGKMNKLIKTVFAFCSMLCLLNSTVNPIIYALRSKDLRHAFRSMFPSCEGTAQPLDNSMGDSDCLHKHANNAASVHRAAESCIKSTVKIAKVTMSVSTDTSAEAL
- PROCEDURE_TEXT: hCB1 Gai cyclic AMP (cAMP) TR-FRET assay, antagonism of EC80 CP55940 with forskolin
- EXPERIMENTAL_CONDITIONS: hCB1 cells, 30 min pre-incubation
ENDPOINT_NAME: IC50

Some entries whose results are on file:
NS(=O)(=O)[C@H]1CC[C@H](N/C(=N/S(=O)(=O)c2ccc(Cl)cc2)N2C[C@H](c3ccccc3)C(c3ccc(Cl)cc3)=N2)C1 (single isomer, unassigned) [Compound 139]    100 to 500 nM
C[C@@H](CS(N)(=O)=O)N/C(=N\S(=O)(=O)c1ccc(C(F)(F)F)cc1)N1C[C@@H](c2ccccc2)C(c2ccc(Cl)cc2)=N1 [Compound 26]    < 100 nM
NS(=O)(=O)CCNC(=NS(=O)(=O)c1cccc(C(F)(F)F)c1)N1C[C@H](c2ccccc2)C(c2ccc(Cl)cc2)=N1 [Compound 27]    < 100 nM
C[C@@H](CN/C(=N\S(=O)(=O)c1ccc(Cl)cc1)N1C[C@H](c2ccccc2)C(c2ccc(Cl)cc2)=N1)S(N)(=O)=O [Compound 6]    100 to 500 nM
NS(=O)(=O)[C@@H]1CC[C@H](N/C(=N/S(=O)(=O)c2ccc(Cl)cc2)N2C[C@H](c3ccccc3)C(c3ccc(F)cc3)=N2)C1 [Compound 149]    100 to 500 nM

Ask | IC50 for NS(=O)(=O)CCNC(=NS(=O)(=O)c1cccc(Cl)c1)N1C[C@H](c2ccccc2)C(c2ccc(Cl)cc2)=N1 [Compound 31] ?
Reply | < 100 nM

Ask | IC50 for C[C@@H](CS(N)(=O)=O)NC(=NS(=O)(=O)c1ccc(Cl)cc1)N1C[C@H](c2ccccc2)C(c2ccc(F)cc2)=N1 (single isomer, unassigned) [Compound 61] ?
Reply | 100 to 500 nM

----------
- TARGET_OR_SYSTEM: Human CB1 Receptor-1b (hCB1b) (Homo sapiens (Human), UniProt P21554)
- PROCEDURE_TEXT: hCB1b Gai cyclic AMP (cAMP) TR-FRET assay, antagonism of EC80 CP55940 with forskolin
- EXPERIMENTAL_CONDITIONS: hCB1b cells, 30 min pre-incubation, read-out: CB1b IC50
Below, each entry is listed with its recorded IC50.

NS(=O)(=O)[C@@H]1CCN(/C(=N/S(=O)(=O)c2ccc(Cl)cc2)N2C[C@H](c3ccccc3)C(c3ccc(Cl)cc3)=N2)C1 (single isomer, unassigned)    > 500 nM
CN1CCN(S(=O)(=O)CCN/C(=N\S(=O)(=O)c2ccc(Cl)cc2)N2C[C@H](c3ccccc3)C(c3ccc(F)cc3)=N2)CC1    100 to 500 nM
NS(=O)(=O)CCN/C(=N\S(=O)(=O)c1ccc(C(F)(F)F)cc1)N1C[C@H](c2ccccc2)C(c2ccc(F)cc2)=N1    < 100 nM
NS(=O)(=O)CCNC(=NS(=O)(=O)c1cccnc1)N1C[C@H](c2ccccc2)C(c2ccc(F)cc2)=N1    > 500 nM

Ask | IC50 for NS(=O)(=O)[C@@H]1CC[C@@H](N/C(=N/S(=O)(=O)c2ccc(Cl)cc2)N2C[C@H](c3ccccc3)C(c3ccc(Cl)cc3)=N2)C1 (single isomer, unassigned) ?
Reply | 100 to 500 nM

Ask | IC50 for CN(C)S(=O)(=O)CCNC(=NS(=O)(=O)c1ccc(Cl)cc1)N1C[C@H](c2ccccc2)C(c2ccc(F)cc2)=N1 ?
Reply | 100 to 500 nM

Ask | IC50 for CN(C)S(=O)(=O)CCN/C(=N\S(=O)(=O)c1ccc(F)cc1)N1C[C@H](c2ccccc2)C(c2ccc(F)cc2)=N1 ?
Reply | < 100 nM

Ask | IC50 for NS(=O)(=O)[C@H]1CC[C@@H](N/C(=N/S(=O)(=O)c2ccc(Cl)cc2)N2C[C@H](c3ccccc3)C(c3ccc(F)cc3)=N2)C1 ?
Reply | 100 to 500 nM

Ask | IC50 for C[C@@H](CN/C(=N\S(=O)(=O)c1ccc(C(F)(F)F)cc1)N1C[C@H](c2ccccc2)C(c2ccc(F)cc2)=N1)S(N)(=O)=O (single isomer, unassigned) ?
Reply | < 100 nM

Ask | IC50 for NS(=O)(=O)N1CC[C@@H](N/C(=N/S(=O)(=O)c2ccc(Cl)cc2)N2C[C@H](c3ccccc3)C(c3ccc(Cl)cc3)=N2)C1 ?
Reply | < 100 nM

Ask | IC50 for CN(CCNS(N)(=O)=O)/C(=N\S(=O)(=O)c1ccc(Cl)cc1)N1C[C@H](c2ccccc2)C(c2ccc(Cl)cc2)=N1 ?
Reply | 100 to 500 nM

Ask | IC50 for NS(=O)(=O)[C@@H]1CC[C@H](N/C(=N/S(=O)(=O)c2ccc(Cl)cc2)N2C[C@H](c3ccccc3)C(c3ccc(Cl)cc3)=N2)C1 ?
Reply | < 100 nM

----------
Below, each entry is listed with its recorded pIC50.
- TARGET_OR_SYSTEM: Human CB1 Receptor-1 (hCB1) (Homo sapiens (Human))
- PROCEDURE_TEXT: hCB1 Gai cyclic AMP (cAMP) TR-FRET assay, antagonism of EC80 CP55940 with forskolin
- EXPERIMENTAL_CONDITIONS: hCB1 cells, 30 min pre-incubation
pIC50: −log10 of the molar value.

C[C@H](CN/C(=N\S(=O)(=O)c1ccc(Cl)cc1)N1C[C@H](c2ccccc2)C(c2ccc(Cl)cc2)=N1)S(N)(=O)=O    > 7.00
NS(=O)(=O)N[C@H]1C[C@@H](N/C(=N\S(=O)(=O)c2ccc(C(F)(F)F)cc2)N2C[C@H](c3ccccc3)C(c3ccc(Cl)cc3)=N2)C1 (single isomer, unassigned)    6.30 to 7.00
NS(=O)(=O)CCCCN/C(=N\S(=O)(=O)c1ccc(Cl)cc1)N1C[C@H](c2ccccc2)C(c2ccc(Cl)cc2)=N1    < 6.30
CN(CCNS(N)(=O)=O)/C(=N\S(=O)(=O)c1ccc(Cl)cc1)N1C[C@H](c2ccccc2)C(c2ccc(Cl)cc2)=N1    6.30 to 7.00
NS(=O)(=O)N1CC[C@@H](N/C(=N/S(=O)(=O)c2ccc(Cl)cc2)N2C[C@H](c3ccccc3)C(c3ccc(Cl)cc3)=N2)C1    6.30 to 7.00

Ask | // lookup pIC50 | system=Human CB1 Receptor-1 (hCB1) (Homo sapiens (Human)) | key= NS(=O)(=O)C1CCN(/C(=N/S(=O)(=O)c2ccc(Cl)cc2)N2C[C@H](c3ccccc3)C(c3ccc(F)cc3)=N2)CC1
Reply | < 6.30
